Tested on: LXRa:RXRa (NR concentration 270 nM, RXRa partner concentration 90 nM)
Test: PBM binding z-score (relative to random genomic background probes); higher = stronger binding; sequences stand for … in GC…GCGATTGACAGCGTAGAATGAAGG
Measured PBM binding z-score by item
Could you respond with only the numeric value?

Record excerpt, results attached:
INSERT INTO assay_data (chain, obs_value) VALUES
  ('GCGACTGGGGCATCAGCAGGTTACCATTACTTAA', -0.326),
  ('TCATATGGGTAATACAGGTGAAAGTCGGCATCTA', 1.4),
  ('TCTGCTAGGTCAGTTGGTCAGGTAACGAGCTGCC', 0.456),
  ('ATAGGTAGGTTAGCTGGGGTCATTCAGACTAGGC', 5.76),
  ('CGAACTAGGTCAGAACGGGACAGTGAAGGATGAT', 0.488);

Problem: Please report PBM binding z-score for the following sequence: `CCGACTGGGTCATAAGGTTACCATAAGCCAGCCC`
Solution: 3.47

Problem: Please report PBM binding z-score for the following sequence: `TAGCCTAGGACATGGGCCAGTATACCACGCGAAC`
Solution: -0.64

----------
Tested on: RXRa homodimer (NR concentration 180 nM)
Test: PBM binding z-score (relative to random genomic background probes); higher = stronger binding; sequences stand for … in GC…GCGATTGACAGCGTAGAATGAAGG
Quick rule: PBM binding z-score of at least 2 means True, below that means False.

Answered examples (5):
INSERT INTO results (chain, category) VALUES
  ('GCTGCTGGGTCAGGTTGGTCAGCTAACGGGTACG', 'False'),
  ('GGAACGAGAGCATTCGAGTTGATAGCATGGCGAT', 'False'),
  ('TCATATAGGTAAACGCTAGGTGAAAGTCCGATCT', 'False'),
  ('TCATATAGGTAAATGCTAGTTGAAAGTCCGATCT', 'False'),
  ('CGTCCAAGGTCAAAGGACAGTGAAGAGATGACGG', 'True');

Alright, here's another sequence for you.
Problem: Is PBM binding z-score at least 2? Consider `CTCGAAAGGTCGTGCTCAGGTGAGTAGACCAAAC`
Solution: True

----------
Test system: PPARg:RXRa (NR concentration 180 nM, RXRa partner concentration 90 nM)
Experiment: PBM binding z-score (relative to random genomic background probes); higher = stronger binding; sequences stand for … in GC…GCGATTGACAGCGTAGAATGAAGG
Measured PBM binding z-score by item
Could you respond with only the numeric value?

Record excerpt, results attached:
INSERT INTO results (chain, obs_value) VALUES
  ('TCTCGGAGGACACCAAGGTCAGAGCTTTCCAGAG', 0.127),
  ('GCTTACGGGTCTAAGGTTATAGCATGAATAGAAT', 3.28),
  ('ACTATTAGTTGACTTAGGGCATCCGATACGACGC', 0.827),
  ('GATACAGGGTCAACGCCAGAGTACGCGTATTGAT', 6.17),
  ('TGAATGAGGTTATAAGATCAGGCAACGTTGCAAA', 1.48),
  ('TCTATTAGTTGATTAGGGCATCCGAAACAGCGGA', 0.185),
  ('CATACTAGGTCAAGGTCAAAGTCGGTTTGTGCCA', 8.52),
  ('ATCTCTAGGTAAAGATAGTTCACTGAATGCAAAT', 0.98);

Problem: Please report PBM binding z-score for the following sequence: `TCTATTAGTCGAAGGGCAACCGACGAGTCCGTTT`
Solution: 0.274

Problem: Please report PBM binding z-score for the following sequence: `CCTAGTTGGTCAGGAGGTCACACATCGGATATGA`
Solution: 3.29

Problem: Please report PBM binding z-score for the following sequence: `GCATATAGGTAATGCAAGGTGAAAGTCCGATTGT`
Solution: 1.05

Problem: Please report PBM binding z-score for the following sequence: `ACTGACAGGTGAGTGAAGGTAACTCAGCTGGACG`
Solution: 0.398

Problem: Please report PBM binding z-score for the following sequence: `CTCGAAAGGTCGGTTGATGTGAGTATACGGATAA`
Solution: 0.418
